Please go through the items and note down their pIC50 5-HT1A.
biological target: Human 5HT1A receptor (Homo sapiens, UniProt P08908); construct: expressed in transfected cells; host or cells: L929 cells (stably transfected); assay: Binding experiment for 5-HT1A receptor ([3H]8OHDPAT); conditions: transfected L929 cell membranes, [3H]8OHDPAT
Sequence (P08908 whole entry): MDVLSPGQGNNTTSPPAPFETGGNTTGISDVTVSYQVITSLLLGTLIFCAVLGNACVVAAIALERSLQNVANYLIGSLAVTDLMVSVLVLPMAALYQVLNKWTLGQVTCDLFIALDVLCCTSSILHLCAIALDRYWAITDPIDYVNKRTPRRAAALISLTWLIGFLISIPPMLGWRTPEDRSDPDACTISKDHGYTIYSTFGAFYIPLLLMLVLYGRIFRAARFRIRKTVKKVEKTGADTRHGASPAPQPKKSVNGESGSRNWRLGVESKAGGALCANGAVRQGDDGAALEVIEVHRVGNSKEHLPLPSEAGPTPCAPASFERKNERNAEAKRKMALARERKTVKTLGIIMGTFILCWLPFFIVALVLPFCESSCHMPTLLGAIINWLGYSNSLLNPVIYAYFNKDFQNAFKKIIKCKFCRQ
A bare number is all that is needed in reply.

molecule COc1cc2c(cc1OC)C1=NOC(CN3CC=C(c4c[nH]c5ccc(C#N)cc45)CC3)C1CO2 (racemic) [Compound 23] , pIC50 5-HT1A observed: 8.2

molecule CCOC(=O)CNC(=O)Nc1ccc2[nH]cc(C3=CCN(CC4ON=C5c6cc(OC)c(OC)cc6OCC54)CC3)c2c1 (racemic) [Compound 39] , pIC50 5-HT1A observed: 7.8

molecule CCOC(=O)C(=O)Nc1ccc2[nH]cc(C3=CCN(CC4ON=C5c6cc(OC)c(OC)cc6OCC54)CC3)c2c1 (racemic) [Compound 42] , pIC50 5-HT1A observed: 8.2

###

biological target: human 5HT transporter (Homo sapiens, UniProt P31645); construct: host or cells: HEK cells; assay: Binding experiment for 5-HT transporter ([3H]Paroxetine); conditions: transfected HEK cell membranes, [3H]Paroxetine
Sequence (P31645 whole entry): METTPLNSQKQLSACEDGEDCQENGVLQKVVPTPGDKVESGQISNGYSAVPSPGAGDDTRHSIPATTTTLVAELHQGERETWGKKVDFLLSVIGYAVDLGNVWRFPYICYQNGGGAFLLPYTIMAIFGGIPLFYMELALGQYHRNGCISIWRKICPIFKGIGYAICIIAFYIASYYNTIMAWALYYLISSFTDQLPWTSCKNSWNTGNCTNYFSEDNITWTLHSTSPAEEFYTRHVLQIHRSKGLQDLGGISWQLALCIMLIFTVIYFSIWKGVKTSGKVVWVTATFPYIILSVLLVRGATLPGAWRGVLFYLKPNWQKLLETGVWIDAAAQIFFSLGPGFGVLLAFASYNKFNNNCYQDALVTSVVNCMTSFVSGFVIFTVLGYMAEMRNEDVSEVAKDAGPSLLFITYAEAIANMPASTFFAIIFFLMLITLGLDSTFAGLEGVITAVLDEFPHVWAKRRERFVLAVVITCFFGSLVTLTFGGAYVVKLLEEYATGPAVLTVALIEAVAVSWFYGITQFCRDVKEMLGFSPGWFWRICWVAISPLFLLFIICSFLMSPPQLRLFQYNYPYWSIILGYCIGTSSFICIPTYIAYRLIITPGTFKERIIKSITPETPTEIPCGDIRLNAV
Please go through the items and note down their pIC50 5HTT.
A bare number is all that is needed in reply.

Measured pIC50 5HTT (human 5HT transporter (Homo sapiens, UniProt P31645)), entry Nc1ccc2c(c1)OCC1C2=NOC1CN1CC=C(c2c[nH]c3ccc(F)cc23)CC1 (racemic) : 6.9

Measured pIC50 5HTT (human 5HT transporter (Homo sapiens, UniProt P31645)), entry COc1cc2c(cc1OC)C1=NOC(CN3CCC(c4c[nH]c5cc(F)ccc45)CC3)C1CO2 (single isomer, unassigned) [Compound 36] : 6.8

Measured pIC50 5HTT (human 5HT transporter (Homo sapiens, UniProt P31645)), entry COc1cc2c(cc1OC)C1=NOC(CN3CC=C(c4c[nH]c5cccc(F)c45)CC3)C1CO2 (single isomer, unassigned) [Compound 16] : 6.9

Measured pIC50 5HTT (human 5HT transporter (Homo sapiens, UniProt P31645)), entry COc1cc2c(cc1OC)C1=NOC(CNCCCc3c[nH]c4ccc(F)cc34)C1CO2 (single isomer, unassigned) [Compound 5] : 7.2

Measured pIC50 5HTT (human 5HT transporter (Homo sapiens, UniProt P31645)), entry COc1cc2c(cc1OC)C1=NOC(CN3CC=C(c4c[nH]c5ccccc45)CC3)C1CO2 (single isomer, unassigned) [Compound 6] : 7.1

Measured pIC50 5HTT (human 5HT transporter (Homo sapiens, UniProt P31645)), entry COc1cc2c(cc1OC)C1=NOC(CN3CC=C(c4c[nH]c5ccc(C)cc45)CC3)C1CO2 (racemic) : 7.0

Measured pIC50 5HTT (human 5HT transporter (Homo sapiens, UniProt P31645)), entry COc1ccc2[nH]cc(C3=CCN(CC4ON=C5c6cc(OC)c(OC)cc6OCC54)CC3)c2c1 (racemic) : 6.4

Measured pIC50 5HTT (human 5HT transporter (Homo sapiens, UniProt P31645)), entry Fc1ccc2[nH]cc(C3=CCN(CC4ON=C5c6ccc(N7CCOCC7)cc6OCC54)CC3)c2c1 (racemic) : 7.5

Measured pIC50 5HTT (human 5HT transporter (Homo sapiens, UniProt P31645)), entry COc1cc2c(cc1OC)C1=NOC(CN3CCC(Cc4c[nH]c5ccc(F)cc45)CC3)C1CO2 (racemic) : 8.3

Measured pIC50 5HTT (human 5HT transporter (Homo sapiens, UniProt P31645)), entry Fc1ccc2c(C3CCN(CC4ON=C5c6ccc(N7CCOCC7)cc6OCC54)CC3)c[nH]c2c1 (racemic) : 7.4

Measured pIC50 5HTT (human 5HT transporter (Homo sapiens, UniProt P31645)), entry CCNC(=O)OCCOc1cc2c(cc1OC)C1=NOC(CN3CCC(c4c[nH]c5ccc(F)cc45)CC3)C1CO2 (racemic) : 6.9

Measured pIC50 5HTT (human 5HT transporter (Homo sapiens, UniProt P31645)), entry Fc1ccc2[nH]cc(C3CCN(CC4ON=C5c6cc7c(cc6OCC54)OCCO7)CC3)c2c1 (single isomer, unassigned) : 6.9

Measured pIC50 5HTT (human 5HT transporter (Homo sapiens, UniProt P31645)), entry COc1cc2c(cc1OC)C1=NOC(CN3CCC(c4c[nH]c5cccc(F)c45)CC3)C1CO2 (racemic) : 7.6

Measured pIC50 5HTT (human 5HT transporter (Homo sapiens, UniProt P31645)), entry Fc1ccc2[nH]cc(C3=CCN(CC4ON=C5c6ccc(NCCN7CCCC7)cc6OCC54)CC3)c2c1 (racemic) : 8.1
